The origin of these recorded values is patent US20260116910A1.

TARGET_UNDER_TEST: MRGPRX4 (Homo sapiens)
Sequence (Q96LA9 whole entry): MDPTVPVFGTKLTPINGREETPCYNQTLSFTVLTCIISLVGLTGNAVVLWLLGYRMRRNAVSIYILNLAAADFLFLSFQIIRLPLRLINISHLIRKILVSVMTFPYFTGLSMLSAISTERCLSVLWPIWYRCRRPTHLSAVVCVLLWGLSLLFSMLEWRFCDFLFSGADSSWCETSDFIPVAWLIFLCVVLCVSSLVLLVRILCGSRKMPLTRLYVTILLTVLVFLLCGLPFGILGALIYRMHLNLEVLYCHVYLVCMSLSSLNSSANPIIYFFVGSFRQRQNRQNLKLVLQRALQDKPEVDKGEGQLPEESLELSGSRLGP
ASSAY_COMMENT: MRGPRX4 activation, Fluo-8 Ca2+ FLIPR assay in HEK293T cells stably expressing MRGPRX4
Type: cell-based
STATED_CONDITIONS: Conc. (Log[M]) −9
Use -0.01 as the dividing line for MRGPRX4 activation, fluorescence change (dF/F0), Average, with the line itself on the fulfilled side and lower values as not fulfilled.

>>> category_label("C[C@H](CCCCC(=O)O)[C@H]1CC[C@H]2[C@@H]3CC[C@@H]4C[C@H](O)CC[C@]4(C)[C@H]3CC[C@]12C [compound 84]")
"not fulfilled"

Exam item: Determine whether this molecule has MRGPRX4 activation, fluorescence change (dF/F0), Average no lower than -0.01: CC[C@H]1[C@@H](O)[C@@H]2[C@H](CC[C@]3(C)[C@@H]([C@H](C)CC#N)CC[C@@H]23)[C@@]2(C)CCCC[C@@H]12 [2-4]
Marked response: not fulfilled

Exam item: Determine whether this molecule has MRGPRX4 activation, fluorescence change (dF/F0), Average no lower than -0.01: COC(=O)CC[C@@H](C)[C@H]1CC[C@H]2[C@@H]3/C(=N\OC(C)(C)C(=O)O)C[C@@H]4C[C@H](OC(C)=O)CC[C@]4(C)[C@H]3CC[C@]12C [1-3]
Marked response: fulfilled

Exam item: Determine whether this molecule has MRGPRX4 activation, fluorescence change (dF/F0), Average no lower than -0.01: C[C@H](CC(=O)O)[C@H]1CC[C@H]2[C@@H]3CC[C@@H]4C[C@H](O)CC[C@]4(C)[C@H]3C[C@H](O)[C@]12C [RC-1]
Marked response: fulfilled

Exam item: Determine whether this molecule has MRGPRX4 activation, fluorescence change (dF/F0), Average no lower than -0.01: C[C@H](CCC(=O)O)[C@H]1CC[C@H]2[C@@H]3[C@H](O)C[C@@H]4C[C@H](O)CC[C@]4(C)[C@H]3CC[C@]12C [CDCA, chenodeoxycholic acid, reference compound]
Marked response: not fulfilled

Exam item: Determine whether this molecule has MRGPRX4 activation, fluorescence change (dF/F0), Average no lower than -0.01: CC[C@H]1[C@@H](O)[C@@H]2[C@H](CC[C@]3(C)[C@@H]([C@H](C)CCNC(=O)NS(=O)(=O)C4CCCCC4)CC[C@@H]23)[C@@]2(C)CCCC[C@@H]12 [5-3]
Marked response: fulfilled

====

Listing of recorded MRGPRX4 activation, fluorescence change (dF/F0), Average by entry.
TARGET_UNDER_TEST: MRGPRX4 (Homo sapiens)
ASSAY_COMMENT: MRGPRX4 activation, Fluo-8 Ca2+ FLIPR assay in HEK293T cells stably expressing MRGPRX4
Format: cell-based
STATED_CONDITIONS: Conc. (Log[M]) −4.5
Would you mind answering with just the numeric figure?

The recorded MRGPRX4 activation, fluorescence change (dF/F0), Average for "CC[C@H]1[C@@H](O)[C@@H]2[C@H](CC[C@]3(C)[C@@H]([C@H](C)CCNC(=O)NS(=O)(=O)c4ccc(C(C)(C)CO)cc4)CC[C@@H]23)[C@@]2(C)CCCC[C@@H]12" is 0.030

The recorded MRGPRX4 activation, fluorescence change (dF/F0), Average for "C[C@H](CCC(=O)O)[C@H]1CC[C@H]2[C@@H]3CC[C@@H]4C[C@@H](O)CC[C@]4(C)[C@H]3C[C@@H](O)[C@]12C" is 0.208

The recorded MRGPRX4 activation, fluorescence change (dF/F0), Average for "C[C@H](CCCC(=O)O)[C@H]1CC[C@H]2[C@@H]3CC[C@@H]4C[C@H](O)CC[C@]4(C)[C@H]3C[C@H](O)[C@]12C" is 0.159

The recorded MRGPRX4 activation, fluorescence change (dF/F0), Average for "CC[C@H]1[C@@H](O)[C@@H]2[C@H](CC[C@]3(C)[C@@H]([C@H](C)CCC(=O)NS(=O)(=O)CC)CC[C@@H]23)[C@@]2(C)CCCC[C@@H]12" is −0.013

The recorded MRGPRX4 activation, fluorescence change (dF/F0), Average for "CC[C@H]1[C@@H](O)[C@@H]2[C@H](CC[C@]3(C)[C@@H]([C@H](C)CCNC(=O)NS(=O)(=O)c4cc(F)cc(F)c4)CC[C@@H]23)[C@@]2(C)CCCC[C@@H]12" is 0.012

The recorded MRGPRX4 activation, fluorescence change (dF/F0), Average for "CC[C@H]1[C@@H](OC(=O)c2cccc(I)c2)[C@@H]2[C@H](CC[C@]3(C)C([C@H](C)CCC(=O)OC)=CC(=O)[C@@H]23)[C@@]2(C)CCCC[C@@H]12" is 0.023

The recorded MRGPRX4 activation, fluorescence change (dF/F0), Average for "COC(=O)CC[C@@H](C)[C@H]1CC[C@H]2[C@@H]3/C(=N\OC(C)(C)C(=O)O)C[C@@H]4C[C@H](OC(C)=O)CC[C@]4(C)[C@H]3CC[C@]12C" is 0.114

The recorded MRGPRX4 activation, fluorescence change (dF/F0), Average for "CC[C@H]1[C@@H](O)[C@@H]2[C@H](CC[C@]3(C)[C@@H]([C@H](C)CC(=O)O)CC[C@@H]23)[C@@]2(C)CCCC[C@@H]12" is −0.059
